For each entry below, report its activity change, negative = inhibition value.
METHOD_DESCRIPTION: qHTS Assay for Lipid Storage Modulators (AID 1519); note: % is set by controls: 0 for no effect and ±100 for the full control effect
CONDITION_DESCRIPTION: Drosophila S3 cells, BODIPY lipid droplet/cell ratio, laser cytometry; at 57.5 µM (top of the series); cells loaded with oleic acid
Records with an inconclusive call do not appear. Residues, ends and D or L forms follow the SMILES beside them.
Report as a plain number; the unit % is understood.

Fill blank: measured activity change, negative = inhibition of the molecule O=C1CC2(CCCC2)CC(=O)N1CCNC[C@H]1COc2ccccc2O1 is ____.
-0.603

Also need C[C@](N)(COP(=O)(O)O)C(=O)O , thanks.
4.7

Also need CC(C)NC[C@H](O)c1ccc(NS(C)(=O)=O)cc1 , thanks.
-2.56

Also need COc1ccc2c3c1O[C@H]1C[C@H](O)C=C[C@@]31CCN(C)C2 , thanks.
3.95

Also need NCCC(=O)O , thanks.
-2.51

Also need NC1(C(=O)O)C[C@H](C(=O)O)[C@H](C(=O)O)C1 (some centres not stated) , thanks.
1.98

Also need CC(C)[C@@H]1[C@H]2CC[C@H](C2)[C@H]1N , thanks.
-6.29

Also need O=C(O)COc1ccc(OCCNC[C@@H](O)COc2ccccc2)cc1 , thanks.
3.49

Also need Cc1o[nH]c(=O)c1CC[C@H](N)C(=O)O , thanks.
4.78

Also need N[C@@H](CO)C(=O)O , thanks.
-1.57

Also need CC(C)=CCCC1(C)C=Cc2c(O)c3c(c(CC=C(C)C)c2O1)OC12C(=CCCC1C(C)(C)O[C@@]2(C/C=C(\C)C(=O)O)C(=O)O)C3=O (some centres not stated) , thanks.
7.82

Also need CCCCCCCCCCCCC/C=C\[C@@H](O)[C@H](CO)NC(C)=O , thanks.
-6.83

Also need CC[C@@](N)(C(=O)O)c1ccc(C(=O)O)cc1 , thanks.
2.13

Also need N[C@H](C(=O)O)c1cccc(O)c1 , thanks.
7.87

Also need N[C@H](C(=O)O)c1ccc(C(=O)O)cc1 , thanks.
-2.07

Also need C[C@@H]1C[C@@H]2[C@H]3CCC4=CC(=O)C=C[C@]4(C)[C@]3(F)[C@@H](O)C[C@@]2(C)[C@@]1(O)C(=O)CO , thanks.
-3.85

Also need CC(C)SC(=N)N , thanks.
-0.874

Also need O=C(O)CCC/C=C\C[C@@H]1CO[C@H](C(F)(F)F)O[C@@H]1c1ccccc1O , thanks.
0.11

Also need O=C(OCCN1CCCCC1)c1c[nH]c2ccccc12 , thanks.
-1.63

Also need COc1cc(O)c2c(=O)c(O)c(-c3ccc(O)c(O)c3)oc2c1 , thanks.
4.09

Also need CC(N)=NCc1cccc(CN)c1 , thanks.
0.387

Also need O=C(O)/C=C1\CCCc2ccccc2[C@H]1O , thanks.
4.3

Also need CO[C@]1(C2=NCCN2)COc2ccccc2O1 , thanks.
1.12

Also need S=C(Nc1ccccc1)Nc1nccs1 , thanks.
-0.0683

Also need Nc1nc2c(nc(Br)n2[C@@H]2O[C@H]3COP(=O)(O)O[C@H]3[C@@H]2O)c(=O)[nH]1 , thanks.
-3.52

Also need CN(C)CCCSC(=N)N , thanks.
3.5

Also need N#C/C(=C\c1ccc(O)c(O)c1)C(N)=O , thanks.
-11.6

Also need CSc1nc(N)c2ncn([C@H]3O[C@H](COP(=O)(O)OP(=O)(O)OP(=O)(O)O)[C@@H](O)[C@@H]3O)c2n1 , thanks.
4.02

Also need CC(=O)NCC(=O)N[C@H](CCC(=O)O)C(=O)O (HELM PEPTIDE1{[ac].G.[dE]}$$$$V2.0) , thanks.
3.36

Also need COc1ccccc1NC(=O)Nc1nc(-c2cccnc2)nc2ccccc12 , thanks.
-0.716

Also need CC(=O)O[C@H](CC(=O)O)C[N+](C)(C)C , thanks.
5.24

Also need C[C@H](NC[C@H](O)CP(=O)(O)CC1CCCCC1)c1ccc(Cl)c(Cl)c1 , thanks.
4.93

Also need O=S(=O)(NCCNC/C=C/c1ccc(Br)cc1)c1cccc2cnccc12 , thanks.
-23.6

Also need C[N+](C)(CCCCCC[N+](C)(C)CCCN1C(=O)c2ccccc2C1=O)CCCN1C(=O)c2ccccc2C1=O , thanks.
-4.59

Also need N[C@@H](Cn1cc(F)c(=O)[nH]c1=O)C(=O)O , thanks.
-2.96

Also need Cc1nc(N=Nc2cc(S(=O)(=O)O)ccc2S(=O)(=O)O)c(COP(=O)(O)O)c(C=O)c1O , thanks.
-1.5

Also need O=C1CC[C@H](N2C(=O)c3ccccc3C2=O)C(=O)N1 , thanks.
-4.08

###

METHOD_DESCRIPTION: Panc-1005 Cancer Cell Toxicity qHTS against the NCATS CANVASS Library (AID 1347349); note: nearly all actives have a fitted effect of over 60% in size
CONDITION_DESCRIPTION: Panc-1005 viability, CellTiter-Glo luminescence, 72 h; series mostly up to 38.3 µM
Text: Natural products and their derivatives continue to be wellsprings of nascent therapeutic potential. […] To address this issue, the Canvass library of natural products was assembled (https://tripod.nih.gov/canvass), in collaboration with academic and industry researchers, for quantitative high-throughput screening (qHTS) across a diverse set of cell-based and biochemical assays. […]
Inconclusive results are not listed. Calls of active or inactive are those of the source. The call rests on the fitted dose curve; in most records, active means well fitted cell-killing curve with a large enough effect; inconclusive means small, poorly fitted or top-dose-only effect; inactive means flat fitted curve, though single readings scatter.
In this exercise, the only acceptable responses are active, inactive

Hello, I am checking results. What call was entered for C[C@H]1C[C@@H]([C@@H]2CC[C@]34O[C@H](CC[C@@]35C[C@H](C)C(=O)O5)CN24)OC1=O ?
inactive

Also need COc1ccc([C@@H]2c3cc(OC)c(OC)cc3C(=O)C(C)C2C)cc1OC (stereo partly drawn) , thanks.
inactive

Also need Oc1ccc([C@H]2Oc3ccc(/C=C/c4cc(O)cc(O)c4)cc3C2c2cc(O)cc(O)c2)cc1 (stereo partly drawn) , thanks.
inactive

Also need C1=C2CCCN[C@@H]2[C@@H]2CCN3CCCC[C@@H]3[C@H](C1)C2 , thanks.
inactive

Also need CNc1ccc(Cl)cc1C(=O)OC[C@]1(C)[C@H]2CC[C@]3(C)[C@@H](C[C@@H](OC)[C@H](C)[C@H]3C3=C(O)C(=O)OC3O)[C@]2(C)CC[C@H]1O (stereo partly drawn) , thanks.
inactive

Also need C/C1=C\CC(=O)/C=C/C=C\c2csc(n2)[C@@H](C)NC(=O)C[C@@](S)([C@@H](C)C(=O)O)CC1 , thanks.
inactive

Also need COc1c(O)cc2oc(-c3ccccc3)cc(=O)c2c1O , thanks.
inactive

Also need COc1cc(O)c2c3c(c(O)cc(C)c13)C(=O)OC2 , thanks.
inactive

Also need C=C[C@]1(C)CC[C@@H]([C@H](C)C(=O)/C=C/C(C)C)O1 , thanks.
inactive

Also need C[C@@]12CCC[C@@](C)(C(=O)O)[C@H]1C[C@@H](O)[C@]13C[C@H]4C[C@H](O[C@@]4(C)C1)[C@@H]23 , thanks.
inactive

Also need CO[C@@H]1[C@H](O)[C@@H](C)O[C@@H](OC[C@H]2/C=C/C=C/C(=O)C(C)C[C@H](C)C(O[C@@H]3O[C@H](C)CC4(OC(=O)O[C@@H]4C)C3O)[C@@H](C)/C=C/C(=O)OC2C)[C@@H]1OC (stereo partly drawn) , thanks.
inactive

Also need O=C(OC1Cc2c(O)cc(O)cc2OC1c1cc(O)c(O)c(O)c1)c1cc(O)c(O)c(O)c1 (stereo not drawn) , thanks.
active

Also need CN1CC[C@]2(c3cccc4c3N[C@@H]3N(C)CC[C@]43[C@@]34CCN(C)[C@@H]3Nc3c([C@]56CCN(C)[C@H]5Nc5ccccc56)cccc34)c3ccccc3N[C@H]12 , thanks.
active

Also need CC1=CC[C@@]2(C[C@@H]1O)[C@@H](C(=O)O)CC[C@H]2C(C)C , thanks.
inactive

Also need CN1CC[C@]2(c3cccc4c3N[C@@H]3N(C)CC[C@]43[C@@]34CCN(C)[C@@H]3Nc3ccccc34)c3ccccc3N[C@H]12 , thanks.
active

Also need C=C(NC(=O)c1csc(-c2nc3c(cc2O)-c2nc(cs2)C(=O)NC(C(C)O)C(=O)N/C(=C(\C)O)c2nc(cs2)C(=O)NC2c4nc(cs4)C(=O)NC(COC(=O)c4c5c6c(cccc6n4O)COC(=O)[C@@H](OC4C[C@](C)(O)[C@H](N(C)C)[C@H](C)O4)C2OC5)c2nc-3cs2)n1)C(N)=O (stereo partly drawn) , thanks.
inactive

Also need CC[C@@H]1C[C@@]2(CC)OC(=O)[C@@]3(CC)OC(=O)[C@@H]1[C@@H]23 , thanks.
inactive

Also need CC(=O)O[C@@H]1C=C2C(=O)OC[C@]2(O)[C@@]2(C)CCCC(C)(C)[C@H]12 , thanks.
active
